- System: OVCAR-3 ovarian
- assay_explanation: NCI tumour cell line growth inhibition, 384-well format
Reported GI50 is given for each of the following compounds.

compound_smiles: CS(=O)(=O)CCNCc1ccc(-c2ccc3ncnc(Nc4ccc(OCc5cccc(F)c5)c(Cl)c4)c3c2)o1
GI50: 1.58 µM
--
compound_smiles: O=C(CCBr)N1CCN(C(=O)CCBr)CC1
GI50: 41.5 µM
--
compound_smiles: NC(=O)c1cccc2c(N[C@H](CN3CCC3)c3ccc(Cl)c(C(F)(F)F)c3)ncnc12
GI50: 2.72 µM
--
compound_smiles: C[C@H](c1ccc(F)cc1CCCC(=O)O)N(c1cc(F)ccc1F)S(=O)(=O)c1ccc(Cl)cc1
GI50: 17.9 µM
--
compound_smiles: C[C@@H](N)COc1ccc(-c2cnc3ccc(N[C@H](C)c4cccc(F)c4)nn23)cc1
GI50: 1.62 µM
